All figures here come from PubChem BioAssay (NCI).

Tested on: NCI/ADR-RES ovarian
Assay: NCI-60 one-dose screen, 48 h (100 = growth as untreated, 0 = no growth, -100 = all killed)
Conditions: 10 µM
About 83,000 compounds went through this panel and 20% of them were active in at least one assay; those are over-represented in the sample as a whole.
Give YES when the value for growth is at least 90%. Give NO when it is less.

Please review the following examples before continuing.
compound	categoryLabel
O=[N+]([O-])c1ccc(N=Nc2ccc(O)c3ccccc23)cc1	NO
COCCOCCCl	YES
C/C(=C\c1ccc([N+](=O)[O-])cc1)C(=O)O	YES
CCCCCCCO	YES
O=C(NCO)c1ccccc1	YES
CC(=O)c1cc2c(cc1F)C(C)(C)CCC2(C)C	YES

Query: Check the entry COc1cc2nc3cc([N+](=O)[O-])ccc3c(Cl)c2cc1OC : does growth equal or exceed 90%?
Reply: YES

Query: Next: NC(=S)NN=C1CCCC1
Reply: NO

Query: Can you check C/C=C/CC(C)C(O)C1C(=O)NC(CC)C(=O)N(C)CC(=O)N(C)C(CC(C)C)C(=O)NC(C(C)C)C(=O)N(C)C(CC(C)C)C(=O)NC(C)C(=O)NC(C)C(=O)N(C)C(CC(C)C)C(=O)N(C)C(CC(C)C)C(=O)N(C)C(C(C)C)C(=O)N1C (configuration not stated) next?
Reply: NO

---

System: MOLT-4 leukemia
Experiment: NCI-60 one-dose screen, 48 h (100 = growth as untreated, 0 = no growth, -100 = all killed)
Conditions: 10 µM
Experimental: Growth inhibition of the MOLT-4 human tumor cell line is measured as a screen for anti-cancer activity. Cells are grown in 96 well plates and exposed to the test compound for 48 hours. Compounds are tested at a single concentration, which is 10^-5 M for most compounds. The reported endpoint is percent growth (GI% or GIPRCNT), where numbers from 0 - 100% represent growth inhibition, and numbers from -100% - 0 represent cell death. For example, a value of 40 represents 60% growth inhibition. […]
This is part of a sample that, as a whole, favours compounds with a hit. Of some 83,000 tested, about 20% had one in any assay.
reportedProperty: growth (%)
Answers are plain numbers, in %.

Quick batch: growth for everything below.
1. Cc1ccc(CCCC(=O)O)c(C)c1
2. COC(=O)/C=C\C(=O)OC
3. S=C(Nc1ccccc1)N1CCCCC1
4. CCOC(=O)C(CCC(C)C)C(=O)OCC
5. OCC1OC(OC2C(O)C(CO)OC2(CO)OC2OC(CO)C(O)C(O)C2O)C(O)C(O)C1O (stereo not drawn)

Reply:
1. 98.7
2. 87.8
3. 98
4. 83.8
5. 126

Hi, could you look up growth for each item in my list?
1. CC1(C)Nc2cccc3c(N=Nc4ccc(N=Nc5ccccc5)c5ccccc45)ccc(c23)N1
2. CS(=O)CC1=NC(=N)N=C1CS(C)=O (stereo not drawn)
3. COc1cc(CN)ccc1O

Reply:
1: 115; 2: 107; 3: 134

---

System: PC-3 prostate
Test: NCI-60 one-dose screen, 48 h (100 = growth as untreated, 0 = no growth, -100 = all killed)
Conditions: 10 µM
The panel holds about 83,000 compounds, 20% with a hit somewhere; the sample as a whole holds those more often.
reportedProperty: growth (%)
One number for each entry, in %.

As a guide, the following entries are already answered.
molecule	growth (%)
CC(=O)Cc1ccc(-c2ccccc2)cc1	97.1
CC(=O)OCC1CCCO1 (configuration not stated)	108
CCN(CC)CCCC(C)Nc1ccnc(/C=C/c2ccc(Cl)cc2)c1 (configuration not stated)	45.5
Cc1ccc(Cl)cc1NC(=O)N(C)CCO	96
Cc1cc(N2CCC(N3CCCC3)CC2)nc(/N=C(\N)Nc2ccc(Cl)c(Cl)c2)n1	82.6

Need growth for each of these molecules.
1. Nc1ccc(N)c([N+](=O)[O-])c1
2. Cc1cc(N)c(S(=O)(=O)O)c(N)c1
3. CCC/C=C(/C(C)=O)C(=O)OCC
4. CSC(=N\N=C\c1ccc(N(C)C)cc1)/N=C/N(C)C
5. O=C1C=C(Nc2ccc([N+](=O)[O-])cc2)c2ccccc2C1=O

Reply:
102
85.4
88.5
106
23.9

Parameter requested: growth. Apply to each item below.
1. COc1cc2cc(OC(C)=O)c3cc4c(cc3c2c(OC)c1OC)OCO4
2. O=C(NC1CCCCC1)OCc1c(COC(=O)NC2CCCCC2)c(-c2ccc(Cl)c(Cl)c2)n2c1CCC2

Reply:
94.7
55.1

---

System: UACC-62 melanoma
Assay: NCI-60 one-dose screen, 48 h (100 = growth as untreated, 0 = no growth, -100 = all killed)
Conditions: 10 µM unless noted
Compounds without any hit were thinned out: in the full panel of roughly 83,000, 20% have a hit.
reportedProperty: growth (%)
One number for each entry, in %.

Illustrative cases are given below, each with its answer.
molecule	studyTarget	reportedProperty	measuredResult
O=C(Cc1nc2ccc([N+](=O)[O-])cc2nc1CC(=O)c1cccnc1)c1cccnc1	UACC-62 melanoma	growth	69.4
NC(=S)N/N=C/c1ccc(N)cc1	UACC-62 melanoma	growth	95.8

I need growth for every entry listed below, if you could help.
1. CN(C)c1ccc(S(=O)(=O)O)cc1
2. CCOC(=O)/C(=C/c1ccc(OC)cc1)N(CC)CC
3. CCN=c1cc2sc3cc(NCC)c(C)cc3nc-2cc1C
4. CC1C(=O)c2ccccc2CC1C(=O)O (centres undefined)

Reply:
108
102
61.3
116

---

System: HT29 colon
Test: NCI-60 one-dose screen, 48 h (100 = growth as untreated, 0 = no growth, -100 = all killed)
Conditions: 10 µM
About 83,000 compounds went through this panel and 20% of them were active in at least one assay; those are over-represented in the sample as a whole. Where a SMILES comes first, the peptide text is derived from it. Bridges are numbered along the chain shown (N, C = ends). [ ]: non-standard residue; d: D form. The star is where a group is joined. ξ: configuration not given here. ξNMePhe(4-NMe2) = CNC(Cc1ccc(N(C)C)cc1)C(=O)O; Picolinoyl(3-OH) = O=C(c1ncccc1O)*; ξPip(4-oxo) = O=C1CCNC(C(=O)O)C1; Phg = N[CH](C(=O)O)c1ccccc1; Abu = CC[CH](N)C(=O)O
Exercise: state measured growth for each of the molecules provided.
Give bare numbers, in %.

molecule	growth, %
CCOC(=O)C1=C(Nc2ccc(Br)cc2)C(=O)N(CC)C1	103
CCC1NC(=O)C(NC(=O)c2ncccc2O)C(C)OC(=O)C(c2ccccc2)NC(=O)C2CC(=O)CCN2C(=O)C(Cc2ccc(N(C)C)cc2)N(C)C(=O)C2CCCN2C1=O (centres undefined) (tested in a mixture with another compound) ({Picolinoyl(3-OH)}-T[Abu]P[ξNMePhe(4-NMe2)][ξPip(4-oxo)][Phg]; ester 1-C; configuration not given here)	43.6
O=C1C=C(O)C(=O)C=C1O	105
Nc1nc(N)c(N=Nc2ccc(C(=O)O)cc2)c(N)n1	105
CS(=O)CC1=NC(=N)N=C1CS(C)=O (centres undefined)	109
CCS(=O)(=O)CCCl	110
N#CSc1cc(S(N)(=O)=O)ccc1N	101
CC(=O)c1sc2c(c1OC(=O)c1ccc(Cl)cc1Cl)c(=O)n(-c1ccccc1)c(=S)n2-c1ccccc1	-23.9
NCCCN	111
NC(=S)CN1CCOCC1	100

For each entry beneath this line, provide reported growth.
1. Cc1nc2ccccc2c(C(=O)O)c1O
2. CNC(=S)NC(C)(C)C
3. CC1CCC(C(=O)O)N1 (centres undefined)
4. Cc1cc2ccccc2c(O)c1C#N
5. Cc1cc2nc(CC(=O)c3cccc([N+](=O)[O-])c3)c(=O)[nH]c2cc1C
6. O=C(O)C(Cc1ccccc1)C(=O)O
7. C=CCOC(=O)C(=O)OCC=C

Reply:
103
101
94.1
123
68.2
123
101

Fill in growth for each of the 7 molecules listed.
1. [O-][N+](=Nc1cccc(Cl)c1)c1cccc(Cl)c1
2. c1ccc(CN2COc3c(ccc4c3OCN(Cc3ccccc3)C4)C2)cc1
3. COc1cc(C2c3cc4c(cc3C3OC(=O)C2C3CO)OCO4)cc(OC)c1OC (centres undefined)
4. CCCCC/C=N/Nc1nc(C)cc(=O)[nH]1
5. Cc1cc(NC(=O)CSCC(=O)O)no1
6. O=c1[nH]cc(Cl)cc1O
7. Cc1ccc(CCCC(=O)O)c(C)c1

Reply:
[106, 27, -9.63, 105, 98.5, 97.3, 98.8]

---

Record form. Attribute: growth. Fill in for each entry.
Test system: SN12C renal
Experiment: NCI-60 one-dose screen, 48 h (100 = growth as untreated, 0 = no growth, -100 = all killed)
Details: 10 µM
This is part of a sample that, as a whole, favours compounds with a hit. Of some 83,000 tested, about 20% had one in any assay.
One number for each entry, in %.

compound	growth, %
Nc1ccc(N=Nc2ccc(S(=O)(=O)O)cc2)c2ccccc12	104
CC(C)CCCC(=O)O	106
COc1ccc2c(NCCCCCCCCNc3c4ccccc4nc4cc(OC)ccc34)c3ccccc3nc2c1	-92.7

Batch request: growth for each of the following compounds.
1. CCOC(=O)CSc1c([N+](=O)[O-])ncn1C
2. CS(=O)CC1=NC(=N)N=C1CS(C)=O (centres undefined)
3. O=C(O)CCCCNC(=O)c1ccccc1
4. COc1cc(OC)c2ccc(=O)oc2c1

Reply:
1: 102; 2: 101; 3: 115; 4: 97
